# test.target: farnesyl protein transferase (Homo sapiens, UniProt P49354+P49356)
# method.notes: FPT IC50 (inhibition of farnesyl protein transferase, in vitro enzyme assay)
# measurement.setup: procedures described in WO 95/10516
parameter: pIC50
Please keep in mind that pIC50 is minus log10 of the molar concentration; only the number is needed.

Some molecules with recorded pIC50:
O=C(CN1CCCNC1=O)N1CCC([C@H]2c3ncc(Br)cc3CCc3cc(Cl)cc(Br)c32)CC1	8.49
O=C(CN1CCCC1=O)N1CCC([C@H]2c3ncc(Br)cc3CCc3cc(Cl)cc(Br)c32)CC1	8.40
O=C1CCCCN1CCC(=O)N1CCC([C@H]2c3ncc(Br)cc3CCc3cc(Cl)cc(Br)c32)CC1	7.72
O=C1CCCCN1CCCC(=O)N1CCC([C@H]2c3ncc(Br)cc3CCc3cc(Cl)cc(Br)c32)CC1	7.10
O=C(CCCN1CCNC1=O)N1CCC([C@H]2c3ncc(Br)cc3CCc3cc(Cl)cc(Br)c32)CC1	7.80

Looking up "O=C(CCCN1CCCNC1=O)N1CCC([C@H]2c3ncc(Br)cc3CCc3cc(Cl)cc(Br)c32)CC1" , I see its pIC50 listed as 7.25

Looking up "O=C1CCCN1CCCC(=O)N1CCC([C@H]2c3ncc(Br)cc3CCc3cc(Cl)cc(Br)c32)CC1" , I see its pIC50 listed as 7.07

Looking up "O=C(CN1CCNC1=O)N1CCC([C@H]2c3ncc(Br)cc3CCc3cc(Cl)cc(Br)c32)CC1" , I see its pIC50 listed as 7.64

Looking up "O=C(CCN1CCCNC1=O)N1CCC([C@H]2c3ncc(Br)cc3CCc3cc(Cl)cc(Br)c32)CC1" , I see its pIC50 listed as 7.70

Looking up "O=C(CN1CCCCC1=O)N1CCC([C@H]2c3ncc(Br)cc3CCc3cc(Cl)cc(Br)c32)CC1" , I see its pIC50 listed as 8.55

---

Listed here: items and their measured IC50.
# Tested on: Ras processing in COS cells
# method.notes: COS Cell IC50 (Cell-Based Assay), inhibition of Ras processing
# measurement.setup: procedures described in WO 95/10516
# Protocol: FPT IC50 (inhibition of farnesyl protein transferase, in vitro enzyme assay), COS Cell IC50 (Cell-Based Assay), GGPT IC50 (inhibition of geranylgeranyl protein transferase, in vitro enzyme assay), Cell Mat Assay, and anti-tumor activity (in vivo anti-tumor studies) are determined by the assay procedures described in WO 95/10516.
Write the answer as a number in nM, unit excluded.

O=C(CN1CCCC1=O)N1CCC([C@H]2c3ncc(Br)cc3CCc3cc(Cl)cc(Br)c32)CC1	500

// next entry
Looking up "O=C(CN1CCCNC1=O)N1CCC([C@H]2c3ncc(Br)cc3CCc3cc(Cl)cc(Br)c32)CC1" , I see its IC50 listed as 16
